# Test system: SK-MEL-5
# Assay Remarks: NCI tumour cell line growth inhibition, 48 h
Active and inactive are the calls of the source. No stated cut-off is given here; in the data, active = GI50 up to about 1.1 µM and inactive = higher.
Possible outcomes: active, inactive

{"columns": ["Compound", "Discrete Label"],
 "data": [
  ["Fc1cc(C2=Nn3c(COc4ccccc4Cl)nnc3S/C2=C\\c2ccc(Cl)cc2)c(Cl)cc1Cl", "inactive"],
  ["O=[N+]([O-])c1ccc(O)c(/C=N/NC(=S)N2CCCCC2)c1", "inactive"],
  ["CC(=O)N[C@H]1CCCC[C@@H]1OC(C)=O", "inactive"],
  ["NCc1ccccc1-c1c2nc(c(-c3ccccc3CN)c3ccc([nH]3)c(-c3ccccc3CN)c3nc(c(-c4ccccc4CN)c4ccc1[nH]4)C=C3)C=C2", "inactive"],
  ["CC(C)(C)N(Cc1ccoc1)C(=O)/C=C\\[S+]([O-])c1ccccc1 (configuration not stated)", "inactive"],
  ["COc1cc(S(=O)(=O)Nc2ccc(-c3csc(N4C(=O)CSC4c4cccs4)n3)cc2)ccc1Cl (configuration not stated)", "inactive"],
  ["CCN(CC)/C(Sc1ccccc1)=C(\\C(Cl)=C(Cl)Cl)[N+](=O)[O-]", "inactive"],
  ["COc1cc(C2OC[C@@H]3C(=O)OC[C@H]23)cc(O)c1OC (some centres not stated)", "inactive"],
  ["CCOP(=O)(OCC)C(C)(CC)NC (configuration not stated)", "inactive"],
  ["NCCSc1nc(-c2ccccc2)c(-c2ccccc2)o1", "inactive"],
  ["O=[N+]([O-])c1ccc(S[C@@H]2[C@H]3c4c(-c5ccccc5)[nH]c(-c5ccccc5)c4[C@@H]2C[C@H]3Cl)cc1", "inactive"],
  ["O=[N+]([O-])c1cc2c(cc1/C=N/n1c(CO)nc3ccccc31)OCO2", "inactive"],
  ["CC(=O)O[C@@H]1[C@H](OC2CCCCC2(c2ccccc2)c2ccccc2)O[N+]([O-])=CC12CCCCC2 (some centres not stated)", "inactive"],
  ["CC(C)=CCC[C@@H](C)C1=C(O)C(=O)C(C)=C(N)C1=O", "inactive"],
  ["CC(SC(=S)N1CCCCC1)C(=O)Nc1nnc(-c2ccc(Cl)cc2)o1 (configuration not stated)", "inactive"],
  ["Cn1c2ccc(F)cc2c2ccc3c(c21)C(=O)C=CC3=O", "inactive"],
  ["COc1ccc(C(=O)C(C(=O)CCC(=O)Nc2cccc(Cl)c2)c2ccc(OC)cc2)cc1 (configuration not stated)", "inactive"],
  ["CCc1cccc(C)c1NC(=S)NC(=O)c1ccccc1C(=O)NC(=S)Nc1c(C)cccc1CC", "inactive"],
  ["COc1cccc2c1C(=O)c1c(O)c3c(c(O)c1C2=O)C[C@@](O)(C(=O)CO)C[C@@H]3OC1CC(N(C)C)C(O)C(C)O1 (some centres not stated)", "active"],
  ["Cc1ccnc(NC(=S)Nc2cccc(Cl)c2)c1", "inactive"],
  ["Cc1c/c(=N/NC(=O)c2ccncc2)n2nc(N)sc2n1", "inactive"],
  ["CN(/N=C/c1ccc(Cl)cc1)C1=NCCCCN1", "inactive"],
  ["O=S1(=O)C[C@H](NCc2ccccc2)[C@H](NCc2ccccc2)C1", "inactive"],
  ["COc1cccc(C[C@H]2COC(=O)[C@]2(O)Cc2cccc(OC)c2)c1", "inactive"],
  ["Cc1ccccc1NC(=O)CC1C(=O)Nc2ccccc2[S+]1[O-] (configuration not stated)", "inactive"],
  ["Cc1c(-c2ccccn2)ccc2ccccc12", "inactive"],
  ["C/C(=N\\NC(=S)N1CCC(C2CCN(C(=S)N/N=C(\\C)c3ccccn3)CC2)CC1)c1ccccn1", "inactive"],
  ["NC1CSc2ccccc2NC1=O (configuration not stated)", "inactive"],
  ["CSC(=S)N(C)NC(=O)c1cccc(C(=O)NN(C)C(=S)SC)n1", "inactive"],
  ["COC(C)(C)OCCN1CCN(CCN2C3=C(C=C(C(C)=O)C3)Sc3ccccc32)CC1", "inactive"],
  ["CN(Cc1nc2c(N)nc(N)nc2nc1N)c1ccc(C(=O)NC(CCC(=O)O)C(=O)O)cc1 (configuration not stated)", "inactive"],
  ["CC(C)=CCC/C(C)=C/CC/C(C)=C/CC/C(C=O)=C/CC/C(C)=C\\CC/C(C)=C/CC/C(C)=C/CC/C(C)=C/CC1=CC(=O)C=CC1=O", "inactive"],
  ["COc1c(OC)c(OC)c2c(c1OC)c(=O)c1ccccc1n2C", "inactive"],
  ["CCOC(=N)CC(=O)Nc1ccccc1", "inactive"],
  ["O=NC1C(Cl)C2CC1C1C(Br)C(Br)CC21 (configuration not stated)", "inactive"],
  ["N=C(N)NCCCC(NC(=O)c1c2ccccc2nc2ccccc12)C(=O)O (configuration not stated)", "inactive"],
  ["CCOC(=O)C(=O)Nc1c(CC)cccc1C(C)CC (configuration not stated)", "inactive"],
  ["CN(C)CCCN1C(=S)N(CCCN(C)C)c2c3cc(O)ccc3nc3c([N+](=O)[O-])ccc1c23", "inactive"],
  ["COC(=O)C1CCC(=S)N1C(C)=O (configuration not stated)", "inactive"],
  ["CC(C)CCCC(C)[C@H]1CCC2[C@H]3C(CC[C@@]21C)[C@@]1(C)CCC=C[C@]12C[C@@H]2[C@@H]3O (some centres not stated)", "inactive"],
  ["Clc1cccc(C2SCc3nc4ccccc4n32)c1Cl (configuration not stated)", "inactive"],
  ["COC12c3ccccc3-c3ccccc3C1[C@H]1C(=O)OC(=O)[C@H]12 (some centres not stated)", "inactive"]
]}
